Test system: Staphylococcus aureus
Assay: MIC in the agar incorporation test
Type: cell-based
Conditions: ATCC6583, agar incorporation, Mueller Hinton agar, 24 hours at 37° C., ATCC 6583, read-out: MIC Staphylococcus aureus
Mark 1 for MIC under 8 µg/mL, -1 if at or over.

Solved entries:
[[record]]
entry_smiles = "Cc1ccc(/C=C/c2ccc(/C=C/c3ccc(C)c(OCCCN(C)C)c3)cc2)cc1OCCCN(C)C"
study_system = "Staphylococcus aureus"
classification = -1

[[record]]
entry_smiles = "CCN(CC)CCOc1ccccc1/C=C/c1ccc(/C=C/c2ccccc2OCCN(CC)CC)cc1"
study_system = "Staphylococcus aureus"
classification = 1

[[record]]
entry_smiles = "CCN(CC)CCOc1cccc(/C=C/c2ccc(/C=C/c3cccc(OCCN(CC)CC)c3OCCN(CC)CC)cc2)c1OCCN(CC)CC"
study_system = "Staphylococcus aureus"
classification = -1

[[record]]
entry_smiles = "Cc1ccc(/C=C/c2ccc(/C=C/c3cccc(OCCCN(C)C)c3)cc2)c(OCCN(C)C)c1"
study_system = "Staphylococcus aureus"
classification = 1

[[record]]
entry_smiles = "CN(C)CCCOc1ccccc1/C=C/c1ccc(/C=C/c2ccccc2OCCCN(C)C)cc1"
study_system = "Staphylococcus aureus"
classification = 1


# ---- query molecule ----
[ask] is_below(MIC, 8 µg/mL) for COc1cccc(/C=C/c2ccc(/C=C/c3cccc(OC)c3OCCCN(C)C)cc2)c1OCCCN(C)C ?
[reply] -1

---

The entries below are paired with their reported Microbicidal activity Corynebacterium xerosis 120 ppm/5 min.
Test system: Corynebacterium xerosis
Assay: Microbicidal activity (suspension test, plate count)
Assay type: cell-based
Settings: 120 ppm, 5 min contact at 22° C., ATCC 373
The reply should contain only the number, in log reductions.

[[record]]
molecule = "CN(C)CCCOc1ccccc1/C=C/c1ccc(/C=C/c2ccccc2OCCCN(C)C)cc1 [formula 26]"
study_system = "Corynebacterium xerosis"
reported_result = 2.9

[[record]]
molecule = "CCN(CC)CCOc1cccc(/C=C/c2ccc(/C=C/c3cccc(OCCN(CC)CC)c3OCCN(CC)CC)cc2)c1OCCN(CC)CC [formula 25]"
study_system = "Corynebacterium xerosis"
reported_result = 5


[ask] Report measured Microbicidal activity Corynebacterium xerosis 120 ppm/5 min; entry is Cc1ccc(/C=C/c2ccc(/C=C/c3cccc(OCCCN(C)C)c3)cc2)c(OCCN(C)C)c1 [formula 29]
[reply] 5

[ask] Report measured Microbicidal activity Corynebacterium xerosis 120 ppm/5 min; entry is CN(C)CCSc1ccccc1/C=C/c1ccc(/C=C/c2ccccc2SCCN(C)C)cc1 [formula 23]
[reply] 5

---

System: Staphylococcus aureus
Test: Microbicidal activity (suspension test, plate count)
Assay type: cell-based
Details: 120 ppm, 5 min contact at 22° C., ATCC 6538
The entries below are paired with their reported Microbicidal activity Staphylococcus aureus 120 ppm/5 min.
The reply should contain only the number, in log reduction.

[ask] Report measured Microbicidal activity Staphylococcus aureus 120 ppm/5 min; entry is CN(C)CCSc1ccccc1/C=C/c1ccc(/C=C/c2ccccc2SCCN(C)C)cc1 [formula 23]
[reply] 2

---

Record: MIC reported on Klebsiella pneumoniae.
The reply should contain only the number, in µg/mL.

[ask] Name the recorded MIC of CN(C)CCCOc1ccccc1/C=C/c1ccc(/C=C/c2ccccc2OCCCN(C)C)cc1 [formula 26] , assay system Klebsiella pneumoniae.
[reply] 25

[ask] Name the recorded MIC of Cc1ccc(/C=C/c2ccc(/C=C/c3ccc(C)c(OCCCN(C)C)c3)cc2)cc1OCCCN(C)C [formula 30] , assay system Klebsiella pneumoniae.
[reply] 25

[ask] Name the recorded MIC of COc1cccc(/C=C/c2ccc(/C=C/c3cccc(OC)c3OCCCN(C)C)cc2)c1OCCCN(C)C [formula 27] , assay system Klebsiella pneumoniae.
[reply] 25

[ask] Name the recorded MIC of Cc1ccc(/C=C/c2ccc(/C=C/c3cccc(OCCCN(C)C)c3)cc2)c(OCCN(C)C)c1 [formula 29] , assay system Klebsiella pneumoniae.
[reply] 25

[ask] Name the recorded MIC of CN(C)CCSc1ccccc1/C=C/c1ccc(/C=C/c2ccccc2SCCN(C)C)cc1 [formula 23] , assay system Klebsiella pneumoniae.
[reply] 31.3

[ask] Name the recorded MIC of CCN(CC)CCOc1ccccc1/C=C/c1ccc(/C=C/c2ccccc2OCCN(CC)CC)cc1 [formula 24] , assay system Klebsiella pneumoniae.
[reply] 120

---

The entries below are paired with their reported MIC.
System: Staphylococcus epidermis
Assay: MIC in the agar incorporation test
Type: cell-based
Conditions: ATCC12228, agar incorporation, Mueller Hinton agar, 24 hours at 37° C., ATCC 12228, read-out: MIC Staphylococcus epidermis
The reply should contain only the number, in µg/mL.

The cases that follow already have their MIC on record.
[[record]]
molecule = "CCN(CC)CCOc1cccc(/C=C/c2ccc(/C=C/c3cccc(OCCN(CC)CC)c3OCCN(CC)CC)cc2)c1OCCN(CC)CC [formula 25]"
property_label = "MIC"
unit_tag = "µg/mL"
reported_result = 62.5

[[record]]
molecule = "CCN(CC)CCOc1ccccc1/C=C/c1ccc(/C=C/c2ccccc2OCCN(CC)CC)cc1 [formula 24]"
property_label = "MIC"
unit_tag = "µg/mL"
reported_result = 7.5

[[record]]
molecule = "CN(C)CCCOc1ccccc1/C=C/c1ccc(/C=C/c2ccccc2OCCCN(C)C)cc1 [formula 26]"
property_label = "MIC"
unit_tag = "µg/mL"
reported_result = 6.3

[[record]]
molecule = "COc1cccc(/C=C/c2ccc(/C=C/c3cccc(OC)c3OCCCN(C)C)cc2)c1OCCCN(C)C [formula 27]"
property_label = "MIC"
unit_tag = "µg/mL"
reported_result = 12.5

[[record]]
molecule = "Cc1ccc(/C=C/c2ccc(/C=C/c3ccc(C)c(OCCCN(C)C)c3)cc2)cc1OCCCN(C)C [formula 30]"
property_label = "MIC"
unit_tag = "µg/mL"
reported_result = 12.5

[[record]]
molecule = "CN(C)CCSc1ccccc1/C=C/c1ccc(/C=C/c2ccccc2SCCN(C)C)cc1 [formula 23]"
property_label = "MIC"
unit_tag = "µg/mL"
reported_result = 15.6


Shift focus to the following entry.
[ask] Report measured MIC; entry is Cc1ccc(/C=C/c2ccc(/C=C/c3cccc(OCCCN(C)C)c3)cc2)c(OCCN(C)C)c1 [formula 29]
[reply] 3.1

---

The entries below are paired with their reported Microbicidal activity Staphylococcus aureus 120 ppm/5 min.
System: Staphylococcus aureus
Assay: Microbicidal activity (suspension test, plate count)
Format: cell-based
Settings: 120 ppm, 5 min contact at 22° C., ATCC 6538
The reply should contain only the number, in log reduction.

[[record]]
entry_smiles = "CCN(CC)CCOc1cccc(/C=C/c2ccc(/C=C/c3cccc(OCCN(CC)CC)c3OCCN(CC)CC)cc2)c1OCCN(CC)CC"
unit_tag = "log reduction"
reported_result = 1

[[record]]
entry_smiles = "CN(C)CCCOc1ccccc1/C=C/c1ccc(/C=C/c2ccccc2OCCCN(C)C)cc1"
unit_tag = "log reduction"
reported_result = 0


Shift focus to the following entry.
[ask] Report measured Microbicidal activity Staphylococcus aureus 120 ppm/5 min; entry is Cc1ccc(/C=C/c2ccc(/C=C/c3cccc(OCCCN(C)C)c3)cc2)c(OCCN(C)C)c1
[reply] 3
